test: in vivo; conditions: female, nu/nu nude, mouse, in vivo
metric: half-life (min)
Report the value in min with no unit label.

query: Could you share which half-life value was measured for `CC1(C)C(/C=C/C=C/C=C/C=C2\N(CCCCS(=O)(=O)O)c3ccc4ccccc4c3C2(C)C)=[N+](CCCCS(=O)(=O)[O-])c2ccc3ccccc3c21` ?
result: 1.19
